# assay system: dephosphorylated IRE1α (Homo sapiens, UniProt O75460)
# Construct: Human IRE1α kinase and RNase domain (residues 547–977) was subcloned into pLIB plasmid; His tag (with TEV cleavage site) (N, cleaved yes); made in house; host or cells: Sf9 insect cells, baculovirus (Bac-to-Bac)
# method: Microscale thermophoresis (MST), IRE1α
# Type: binding
endpoint label: Kd (nM)

>>> print(df.to_string())
                           smiles_structure  endpoint_label  observed
0  Cc1c(CCC(=O)O)c2cc(Br)ccc2n1C(=O)c1ccccc1              Kd      1360

---

# assay system: dephosphorylated IRE1α (547–977) (Homo sapiens)
# Construct: Human IRE1α kinase and RNase domain (residues 547–977) was subcloned into pLIB plasmid; His tag (with TEV cleavage site) (N, cleaved yes); made in house; host or cells: Sf9 insect cells, baculovirus (Bac-to-Bac)
# method: FRET-based IRE1α RNase activity assay, dephosphorylated IRE1α
# Assay type: biochemical
# condition parameters: FRET assay at 50 μM; mean (± SEM); read-out: IRE1α inhibition%
# Source text: Human IRE1α kinase and RNase domain (residues 547–977) was subcloned into pLIB plasmid with a His tag and TEV cleavage site, and expressed using Bac-to-Bac expression system. The primers used are listed in Supplementary Table S3. […] The dual-labeled RNA substrate with a FAM at 5’ and the BHQ-1 at 3’ containing the XBP1 sequence (5′FAM-[…]-3′BHQ1) was purchased from Integrated DNA Technologies (IDT). […] The plate was then kinetically read over one hour at room temperature using a TECAN Spark plate reader. […]
endpoint label: inhibition at 50 µM

In [3]: df
Out[3]:
                                   compound                              assay_system       endpoint_label  observed
0  COc1ccc2c(c1)c(CCC(=O)O)c(C)n2C(=O)c1ccc(Cl)cc1 [IA01]  dephosphorylated IRE1α (547–977) (Homo sapiens)  inhibition at 50 µM     97.1%
1  COc1ccc2c(c1)c(CC(=O)O)c(C)n2C(=O)c1ccc(Cl)cc1 [Indomethacin, indomethacin, reference compound]  dephosphorylated IRE1α (547–977) (Homo sapiens)  inhibition at 50 µM     ≤ 50%
2  COc1ccc2c(c1)c(CC(=O)N1CCOCC1)c(C)n2C(=O)c1ccc(Cl)cc1 [cms11]  dephosphorylated IRE1α (547–977) (Homo sapiens)  inhibition at 50 µM     < 30%

---

# assay system: dephosphorylated IRE1α (547–977) (Homo sapiens, UniProt O75460)
# Construct: Human IRE1α kinase and RNase domain (residues 547–977) was subcloned into pLIB plasmid; His tag (with TEV cleavage site) (N, cleaved yes); made in house; host or cells: Sf9 insect cells, baculovirus (Bac-to-Bac)
# Sequence (O75460 547-977): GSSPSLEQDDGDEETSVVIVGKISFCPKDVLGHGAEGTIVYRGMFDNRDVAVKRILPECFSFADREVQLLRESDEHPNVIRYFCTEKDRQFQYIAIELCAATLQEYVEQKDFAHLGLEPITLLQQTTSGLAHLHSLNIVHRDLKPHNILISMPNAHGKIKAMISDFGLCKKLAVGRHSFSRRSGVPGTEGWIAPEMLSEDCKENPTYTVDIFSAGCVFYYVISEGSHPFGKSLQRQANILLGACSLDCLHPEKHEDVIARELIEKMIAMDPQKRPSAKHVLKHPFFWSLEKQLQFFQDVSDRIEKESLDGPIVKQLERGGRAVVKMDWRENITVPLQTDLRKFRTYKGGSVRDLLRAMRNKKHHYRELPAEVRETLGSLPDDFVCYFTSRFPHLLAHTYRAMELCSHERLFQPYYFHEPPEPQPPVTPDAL
# method: FRET-based IRE1α RNase activity assay, dephosphorylated IRE1α
# Format: biochemical
# condition parameters: IRE1a; mean; Supplementary Fig. 2b, 2c; read-out: IC50, mean
Listing of entries alongside the reported IC50.
endpoint label: IC50 (nM)

In [3]: df
Out[3]:
                                   compound  observed
0  Cc1c(CCC(=O)O)c2cc(F)ccc2n1C(=O)c1cccs1 [IA48]       350
1  Cc1c(CCC(=O)O)c2cc(Br)ccc2n1C(=O)c1cccs1 [IA44]        80
2  Cc1c(CCC(=O)O)c2cc(F)ccc2n1C(=O)c1cccc(C#N)c1 [IA47]      2820
3  Cc1c(CCC(=O)O)c2cc(Cl)ccc2n1C(=O)c1cccs1 [IA60]       100
4  Cc1c(CCC(=O)O)c2cc(Cl)ccc2n1C(=O)c1cccc(C#N)c1 [IA63]        90
5  Cc1c(CCC(=O)O)c2ccccc2n1C(=O)c1cccs1 [IA42]      2090
6  Cc1c(CCC(=O)O)c2ccccc2n1C(=O)c1cccc(C#N)c1 [IA41]      2930
